test details: alpha-synuclein stem-loop luciferase translation blockers – H4 neuroglioma cells, luminescence, confirmation (AID 1988)
Format: functional, cell-based
Calls of active or inactive are those of the source. No stated cut-off is given here; in the data, actives have a measured EC50 and inactives only a lower limit.
measured attribute: EC50

| compound | data value |
| --- | --- |
| Cc1c(Cc2ccccc2)sc(N)c1C(N)=O | > 120 µM (not active) |
| CCN(CC)c1ccc(/C=N/NC(=O)CNC(=O)C2COc3ccccc3O2)c(O)c1 (stereo not drawn) | 0.311 µM (active) |
| COc1ccc(CN=C(S)Nc2ccc(-c3ccccc3)cc2)cc1 | > 120 µM (not active) |
| CCOC(=O)c1c2c(n(C)c1COC)C(=O)C(=O)c1ccc(Br)cc1-2 | 1.44 µM (active) |
| COc1cc2c(OC(C)=O)c3c(c(-c4ccc5c(c4)OCO5)c2cc1OC)C(=O)OC3 | 4.4 µM (active) |
| COc1ccc(CN2C(=O)[C@@H]3Cc4c([nH]c5ccccc45)C(C)(C)N3C2=O)cc1 | > 120 µM (not active) |
| CCOc1ccc(OCC(=O)Nc2nccs2)cc1 | 6.85 µM (active) |
| Oc1ccc(Br)cn1 | > 120 µM (not active) |
